Molecular target: Glycogen synthase kinase-3 alpha (Homo sapiens) (UniProt P49840)
Sequence (P49840 whole entry, looked up): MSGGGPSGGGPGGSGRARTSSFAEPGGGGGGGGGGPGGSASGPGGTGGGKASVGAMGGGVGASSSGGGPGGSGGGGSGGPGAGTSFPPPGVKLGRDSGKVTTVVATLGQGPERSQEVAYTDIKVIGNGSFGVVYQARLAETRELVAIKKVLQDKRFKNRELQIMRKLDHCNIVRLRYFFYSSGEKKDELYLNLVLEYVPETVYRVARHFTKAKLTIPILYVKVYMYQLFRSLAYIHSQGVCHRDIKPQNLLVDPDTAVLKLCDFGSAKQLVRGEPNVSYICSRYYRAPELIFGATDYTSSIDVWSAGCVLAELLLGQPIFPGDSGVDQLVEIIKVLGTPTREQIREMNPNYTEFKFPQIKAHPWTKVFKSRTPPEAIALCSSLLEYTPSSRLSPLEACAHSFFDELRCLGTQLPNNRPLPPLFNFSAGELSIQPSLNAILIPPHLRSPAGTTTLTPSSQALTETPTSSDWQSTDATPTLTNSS
Test: concentration-response blocking of human GSK3A – biochemical, luminescence, cell-free homogeneous, retest, dose response (AID 463203)
Conditions: GSK-3 alpha enzyme, ADP-Glo luminescence, 60 min
The source made the active and inactive calls.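 The calls were made as follows: active = more than half of replicate measurements showing over 20% loss of kinase signal relative to plate controls; inconclusive = some but at most half of replicates over 20% loss; inactive = no replicate over 20% signal loss.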
Choose the fitting class; nothing outside active, inactive is accepted.

As a guide, the following entries are already answered.
| input smiles | qualitative label |
| --- | --- |
| CC(C)c1ccc(NC(=O)CSc2n[nH]c(=O)n2-c2ccc3c(c2)OCCO3)cc1 | inactive |
| N#Cc1c(Cl)c(Cl)c2nnc(-c3ccc(Br)cc3)n2c1Cl | active |
| CC(=O)c1cc(-c2ccc(F)cc2)n(CCC(=O)Nc2cc(C)[nH]n2)c1C | active |
| O=C1NC(=O)/C(=C/c2ccc(-c3cc(C(=O)O)ccc3Cl)o2)S1 | active |
| Cc1cccc(NC(=O)CSc2nc3[nH]ncc3c(=O)n2-c2ccccc2)c1 | inactive |

Can you look up the reported call for C=CCNc1nc(N)c(C(=O)c2ccc3c(c2)OCO3)s1 for me?
active

Call for entry COc1cc(/C=N/n2nnnc2N)ccc1OCC#N :
inactive

Hey, what did the test say about CN(C)c1ccc(/C=N/NC(=O)c2ccc(Cl)cc2)cc1 ?
inactive

Give the logged outcome of this assay for the following compound: Cc1nc2ncnn2c(C)c1Cc1cccc(F)c1
inactive

What did this assay record as the result for COc1ccc(OCC(=O)NCCCn2ccnc2)cc1 ?
inactive

Any idea what this test logged for CCOC(=O)c1c(C)c[nH]c1C ?
inactive

How did this test come out for Cc1cnn(C(=O)c2ccccc2Br)c1 ?
inactive

###

Biological target: Glycogen synthase kinase-3 alpha (Homo sapiens) (UniProt P49840)
Test: concentration-response blocking of human GSK3A – biochemical, luminescence, cell-free homogeneous, retest, dose response (AID 463203)
Conditions: GSK-3 alpha enzyme, ADP-Glo luminescence, 60 min
Active and inactive are the calls of the source.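 The calls were made as follows: active = more than half of replicate measurements showing over 20% loss of kinase signal relative to plate controls; inconclusive = some but at most half of replicates over 20% loss; inactive = no replicate over 20% signal loss.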
Mark one answer only. Choices: active, inactive

Worked set:
| input smiles | system under test | qualitative label |
| --- | --- | --- |
| Cc1cccc(OCC(=O)N2CCN(c3nnc(-c4ccccc4)c4ccccc34)CC2)c1 | Glycogen synthase kinase-3 alpha (Homo sapiens) (UniProt P49840) | inactive |
| O=C(CSc1nc2ccccc2o1)Nc1nc2ccc(Br)cc2s1 | Glycogen synthase kinase-3 alpha (Homo sapiens) (UniProt P49840) | inactive |
| CCn1c(SCC(=O)Nc2nc3ccc(OC)cc3s2)nnc1-c1ccoc1C | Glycogen synthase kinase-3 alpha (Homo sapiens) (UniProt P49840) | active |
| COc1ccc(OC)c(C2=Nn3c(nnc3-c3ccncc3)SC2)c1 | Glycogen synthase kinase-3 alpha (Homo sapiens) (UniProt P49840) | active |
| CCOc1c(O)ccc(/C=C2\SC(=S)NC2=O)c1[N+](=O)[O-] | Glycogen synthase kinase-3 alpha (Homo sapiens) (UniProt P49840) | active |

Tell me the assay call for Nc1nc(Nc2cccc(F)c2)nc(NCc2ccco2)c1[N+](=O)[O-] please.
active

Lab log entry: O=C(c1ccco1)c1cn(CC(=O)N2CCCC2)c2ccccc12 — outcome as called in the assay?
inactive

For Cn1nnnc1SCC(=O)Nc1nn(-c2ccccc2)nc1C(N)=O , what call appears in the results of this test?
active

Please let me know the test result on file for Cc1sc2ncnc(NCCCN3CCCC3=O)c2c1C .
active

Could you check what this test reported for S=C(NCc1ccc2c(c1)OCO2)NCc1ccc2c(c1)OCO2 ?
active

What did this assay record as the result for O=C(O)Cn1c(=O)c2c3c(sc2n(Cc2ccc(F)cc2)c1=O)CCCC3 ?
inactive

###

Molecular target: Glycogen synthase kinase-3 alpha (Homo sapiens) (UniProt P49840)
Experiment: concentration-response blocking of human GSK3A – biochemical, luminescence, cell-free homogeneous, retest, dose response (AID 463203)
Conditions: GSK-3 alpha enzyme, ADP-Glo luminescence, 60 min
The source made the active and inactive calls.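 How the source made its calls: active means more than half of replicate measurements showing over 20% loss of kinase signal relative to plate controls; inconclusive means some but at most half of replicates over 20% loss; inactive means no replicate over 20% signal loss.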
Hi! Could you answer with just one of these? active, inactive

Worked examples, 6 compounds total:
| compound | qualitative label |
| --- | --- |
| COc1cc(/C=c2\s/c(=C\C(=O)C(C)(C)C)[nH]c2=O)cc(OC)c1OC | inactive |
| CC(C)c1onc(C(=O)N(C)C2CCCCC2)c1[N+](=O)[O-] | inactive |
| CCn1ccc(C(=O)Nc2ccsc2C(=O)OC)n1 | active |
| CCc1nnc(NC(=O)c2cccc(S(=O)(=O)N3CC(c4ccccc4)CC3=O)c2)s1 (configuration not stated) | inactive |
| Cn1c(SCc2nc(-c3ccc(Cl)cc3)no2)nnc1-c1ccccc1 | inactive |
| CC(=O)Nc1ccc(-c2csc(NCc3ccccc3)n2)cc1 | inactive |

Give the logged outcome of this assay for the following compound: Cc1nc2ccc(-c3ccccc3)cc2o1
inactive

Which outcome was entered for the compound CC(=O)c1c(O)cc(O)cc1CC(=O)O in this test?
inactive

Name the outcome recorded for CCN1CCN(c2c(Cl)cccc2NC(=O)c2ccc(Br)o2)CC1 in the assay.
active

Tell me the recorded outcome of this test for O=C(Nc1cccnc1)c1scc2c1OCCO2 .
active

For CC(C)c1[nH]nc2c1C(c1ccco1)C(C#N)=C(N)O2 (configuration not stated) , which call appears in the assay record?
inactive

For COc1ccc(NC(=O)Nc2ccc(F)cc2)c(C)c1 , which call appears in the assay record?
inactive

###

Target: Glycogen synthase kinase-3 alpha (Homo sapiens) (UniProt P49840)
Test: concentration-response blocking of human GSK3A – biochemical, luminescence, cell-free homogeneous, retest, dose response (AID 463203)
Conditions: GSK-3 alpha enzyme, ADP-Glo luminescence, 60 min
Active and inactive are the calls of the source.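 How the source made its calls: active means more than half of replicate measurements showing over 20% loss of kinase signal relative to plate controls; inconclusive means some but at most half of replicates over 20% loss; inactive means no replicate over 20% signal loss.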
Outcomes you can answer with include only these: TRUE = active, FALSE = inactive

| input smiles | system under test | qualitative label |
| --- | --- | --- |
| COCCCNc1nc2ccccc2[nH]c1=O | Glycogen synthase kinase-3 alpha (Homo sapiens) (UniProt P49840) | FALSE |
| CC(C)(C)C(=O)/C=c1\[nH]c(=O)/c(=C\c2ccc(F)cc2)s1 | Glycogen synthase kinase-3 alpha (Homo sapiens) (UniProt P49840) | TRUE |
| CCOc1ccccc1-n1c(O)c(C=NCCCn2ccnc2)c(=O)[nH]c1=O | Glycogen synthase kinase-3 alpha (Homo sapiens) (UniProt P49840) | TRUE |
| Cc1nc(N2CCOCC2)nc(N2CCCCC2)c1[N+](=O)[O-] | Glycogen synthase kinase-3 alpha (Homo sapiens) (UniProt P49840) | FALSE |
| CN1/C(=C\C=[N+](C)c2ccccc2)C(C)(C)c2ccccc21 | Glycogen synthase kinase-3 alpha (Homo sapiens) (UniProt P49840) | FALSE |
| O=C(O)c1ccc(N=Nc2c(O)[nH]c3ccc(Br)cc23)cc1 | Glycogen synthase kinase-3 alpha (Homo sapiens) (UniProt P49840) | TRUE |
| C[C@H](CO)N1C[C@H](C)[C@@H](CN(C)S(=O)(=O)c2ccc(F)cc2)Oc2c(NC(=O)Cc3ccccc3)cccc2C1=O | Glycogen synthase kinase-3 alpha (Homo sapiens) (UniProt P49840) | FALSE |
| CN1/C(=C/C(=O)C2CC2)C(C)(C)c2ccccc21 | Glycogen synthase kinase-3 alpha (Homo sapiens) (UniProt P49840) | FALSE |

Which result was noted for this molecule in the test: COc1ccc(C(=O)c2cc(C(C)=O)c(Nc3ccccc3)s2)cc1
FALSE

In this assay, the call recorded for Cc1ccc2c(c1)COc1c3ccc(C(=O)N4CCCCC4)cc3nn1-2 was what?
FALSE

Assay outcome for COc1cccc(CN2CCN(Cc3cc(OC)c(OC)cc3[N+](=O)[O-])CC2)c1 : what was it?
FALSE

Hi, do you know how COc1cccc(-n2c(SCC(N)=O)nnc2-c2ccco2)c1 came out in this test?
FALSE

Call for entry CNc1nnc(-c2cc3ccccc3oc2=O)s1 :
TRUE

What did this assay record as the result for NCCNc1cc(N2CCCC2)ccc1[N+](=O)[O-] ?
FALSE

Given C/C(CC(=O)Nc1ccc(Cl)cc1Cl)=N\NC(=O)C(=O)N1CCCC1 , state the outcome it received in this test.
FALSE

Check the results log: what was the call for O=C(Nc1cccc(-c2cnc3ccccc3n2)c1)c1ccncc1 ?
FALSE

GET /call?item= CCC(CC)c1nnc(NC(=O)Oc2ccccc2)s1 returns the recorded outcome of this test.
FALSE

Answer briefly: the call reported for CCN1CCN(c2nc(N)c([N+](=O)[O-])c(Nc3ccc(C)c(C)c3)n2)CC1 in this assay.
FALSE

What is the recorded call for this molecule in the test? Cc1cc2nc(-c3cccnc3SCC(=O)NC(C)C)[nH]c2cc1C
FALSE

What is the recorded call for this molecule in the test? CCOC(=O)c1ccc(NC(=S)NCCc2ccccc2)cc1
FALSE

###

Molecular target: Glycogen synthase kinase-3 alpha (Homo sapiens) (UniProt P49840)
Assay: concentration-response blocking of human GSK3A – biochemical, luminescence, cell-free homogeneous, retest, dose response (AID 463203)
Settings: GSK-3 alpha enzyme, ADP-Glo luminescence, 60 min
The source made the active and inactive calls.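 Rule for the calls: active = more than half of replicate measurements showing over 20% loss of kinase signal relative to plate controls; inconclusive = some but at most half of replicates over 20% loss; inactive = no replicate over 20% signal loss.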
The reply should be one of these categories: active, inactive

Check out these entries, answers already filled in.
| molecule | system under test | qualitative label |
| --- | --- | --- |
| COc1ccc(COC(=O)C2=C(C)NC(=O)NC2c2ccc(OC)c(OC)c2)cc1 (stereo unspecified) | Glycogen synthase kinase-3 alpha (Homo sapiens) (UniProt P49840) | inactive |
| CN(Cc1c(C(=O)N/N=C/c2ccccc2)nnn1-c1nonc1N)C1CCCCC1 | Glycogen synthase kinase-3 alpha (Homo sapiens) (UniProt P49840) | inactive |
| CC(=O)C(Sc1ccc2nnc(-c3ccc(C)cc3)n2n1)C(C)=O | Glycogen synthase kinase-3 alpha (Homo sapiens) (UniProt P49840) | inactive |
| COc1ccc(C2c3sc(=O)[nH]c3SC3C4CCC(C4)C23)cc1OC (stereo unspecified) | Glycogen synthase kinase-3 alpha (Homo sapiens) (UniProt P49840) | active |

Would you kindly look at the next entry?
Check the results log: what was the call for CN1CCN(c2ccc(NC(=O)c3ccc(Br)o3)cc2)CC1 ?
inactive
